System: P. falciparum male gametocytes
Assay: P. falciparum Dual Gamete Formation Assay (PfDGFA), male readout (exflagellation)
Type: cell-based, Plasmodium falciparum NF54
Conditions: 2µM, 24h preincubation with gametocytes; replicate R4
Measured % inhibition male (individual replicates) R4 of individual entries
Only the number, expressed in %, is required.

Worked examples, 3 compounds total:
compound	measurementUnit	numericValue
CC(=NNC(=S)NCCc1ccccn1)c1ccccn1 [TCMDC-137895]	%	94.6
Cc1c(Cn2nc(Cl)c(N3CCNCC3)cc2=O)cccc1NC(=O)Nc1ccc(-c2ccccc2)cc1.O=C(O)C(F)(F)F [TCMDC-141699]	%	92.9
CCCOc1ccc(CCNCCCCNCCc2ccc(OCCC)c3ccccc23)c2ccccc12.CS(=O)(=O)O [TCMDC-137952]	%	100.7

Alright, here's another compound for you.
Q: Using the record for CNC(=O)c1ccccc1Nc1nc(Nc2cccc(CS(C)(=O)=O)c2)ncc1C.O=CO [TCMDC-133809] , report its % inhibition male (individual replicates) R4.
A: 84.9
